Item-by-item account of EC50
# tested_target: T1, hOX40-muFc (human; mouse, UniProt P43489 29-216)
# T1 construct: range 1-216; Expressed in HEK293, purified on Protein A; also called recombinant human OX40; not shown: mouse IgG1-Fc (muFc) domain, residue 98 to residue 324 of P01868
# T1 sequence (looked up): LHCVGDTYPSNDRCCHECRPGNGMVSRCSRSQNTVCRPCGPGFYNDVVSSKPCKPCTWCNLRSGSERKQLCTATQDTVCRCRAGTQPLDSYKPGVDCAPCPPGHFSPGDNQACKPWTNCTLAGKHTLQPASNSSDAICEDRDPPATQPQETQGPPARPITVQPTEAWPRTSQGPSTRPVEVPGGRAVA
# protocol: ELISA, hOX40-muFc coated at 2 µg/ml, goat anti-human IgG-HRP; column C of the drawn 4-P fit table y=(A-D)/(1+(x/C)^B)+D; the axis prints no unit, ng/ml is from paragraph 210
Give just the numeric value; µg/mL need not be written.

Below: 3 binders and their reported EC50.
anti-OX40 21#H96 mAb (antibody, IgG4, V domains shown, Formatted as IgG according to Embodiment 3 (IgG4); also called H96 heavy chain mutant; not shown: human immunoglobulin gamma4 (IgG4) constant region, P01861; human immunoglobulin kappa light chain constant region, P01834) VH: QVQLQQSGPGLVKPSQTLSLTCAISGDSVSSNSVSWDWIRQSPSRGLEWLGRTYYRSKWYNEYAVSVESRITINPDTSKNQFSLQLNSVTPEDTAIYFCVRNDYFFDLWGRGTLVTVSS VL: EIVLTQSPATLSLSPGERATLSCRASQSVSSYLAWYQQKPGQAPRLLIYDASDRATGIPARFSGSGSGTDFTLTISSLEPEDFAVYYCQLRSNWPPGYTFGQGTKVEIK	0.046
O21 mAb (antibody, IgG4, V domains shown, also called 021 mAb; anti-OX40 21# mAb; not shown: human immunoglobulin gamma4 (IgG4) constant region, P01861; human immunoglobulin kappa light chain constant region, P01834) VH: QVQLQQSGPGLVKPSQTLSLTCAISGDSVSSNSVSWDWIRQSPSRGLEWLGRTYYRSKWYNEYAVSVESRITINPDTSKNQFSLQLNSVTPEDTAIYFCVRNNYFFDLWGRGTLVTVSS VL: EIVLTQSPATLSLSPGERATLSCRASQSVSSYLAWYQQKPGQAPRLLIYDASDRATGIPARFSGSGSGTDFTLTISSLEPEDFAVYYCQLRSNWPPGYTFGQGTKVEIK	0.0758
anti-OX40 21#H65 mAb (antibody, IgG4, V domains shown, Formatted as IgG according to Embodiment 3 (IgG4); not shown: human immunoglobulin gamma4 (IgG4) constant region, P01861; human immunoglobulin kappa light chain constant region, P01834) VH: QVQLQQSGPGLVKPSQTLSLTCAISGDSVSSNSVSWDWIRQSPSRGLEWLGRTYYRSKWYNEYAVSVENRITINPDTSKNQFSLQLNSVTPEDTAIYFCVRNNYFFDLWGRGTLVTVSS VL: EIVLTQSPATLSLSPGERATLSCRASQSVSSYLAWYQQKPGQAPRLLIYDASDRATGIPARFSGSGSGTDFTLTISSLEPEDFAVYYCQLRSNWPPGYTFGQGTKVEIK	0.0609

Reported EC50 ( anti-OX40 21#H28H33 mAb (antibody, IgG4, V domains shown, Formatted as IgG 'according to the method in Embodiment 3' (IgG4); not shown: human immunoglobulin gamma4 (IgG4) constant region, P01861; human immunoglobulin kappa light chain constant region, P01834) VH: QVQLQQSGPGLVKPSQTLSLTCAISGDNVSSNGVSWDWIRQSPSRGLEWLGRTYYRSKWYNEYAVSVESRITINPDTSKNQFSLQLNSVTPEDTAIYFCVRNNYFFDLWGRGTLVTVSS VL: EIVLTQSPATLSLSPGERATLSCRASQSVSSYLAWYQQKPGQAPRLLIYDASDRATGIPARFSGSGSGTDFTLTISSLEPEDFAVYYCQLRSNWPPGYTFGQGTKVEIK ) = 0.0432
